# Measurement Target: Tyrosine-protein phosphatase non-receptor type 1 (Homo sapiens) (UniProt P18031)
# Sequence (P18031 whole entry): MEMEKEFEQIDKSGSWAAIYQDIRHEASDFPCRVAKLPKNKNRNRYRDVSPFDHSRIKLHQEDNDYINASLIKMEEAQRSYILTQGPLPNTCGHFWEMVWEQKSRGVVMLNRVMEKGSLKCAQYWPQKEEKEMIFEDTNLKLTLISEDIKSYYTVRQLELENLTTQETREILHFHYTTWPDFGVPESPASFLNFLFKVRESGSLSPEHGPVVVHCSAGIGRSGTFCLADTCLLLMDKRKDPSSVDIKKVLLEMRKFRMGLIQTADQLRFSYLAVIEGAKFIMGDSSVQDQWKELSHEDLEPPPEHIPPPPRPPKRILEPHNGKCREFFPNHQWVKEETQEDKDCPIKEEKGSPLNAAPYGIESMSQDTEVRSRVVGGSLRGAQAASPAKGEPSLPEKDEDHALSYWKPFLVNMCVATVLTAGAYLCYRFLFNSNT
# Procedure Details: Inhibitory activity against recombinant human PTP1B at 10 uM
Measured Metric: inhibition

Sample answers from the record:
>  <Compound Structure>
CCCCCCCCCCCCCCc1ccc(C(=O)c2ccc3c(-c4ccc(OCC(=O)O)cc4)nocc2-3)cc1

>  <inhibition>
101%

$$$$
>  <Compound Structure>
O=C(O)COc1ccc(-c2nocc3c(C(=O)c4ccc(Cl)cc4)ccc2-3)cc1

>  <inhibition>
14.3%

$$$$
>  <Compound Structure>
Oc1ccc(-c2nocc3cccc2-3)cc1

>  <inhibition>
18.5%

$$$$
>  <Compound Structure>
COc1ccccc1C(=O)c1ccc2c(-c3ccc(OCC(=O)O)cc3)nocc1-2

>  <inhibition>
3.8%

$$$$
>  <Compound Structure>
O=C(O)COc1ccc(-c2nocc3c(C(=O)c4ccc(Cl)cc4Cl)ccc2-3)cc1

>  <inhibition>
38%

$$$$
>  <Compound Structure>
COc1ccc(C(=O)c2ccc3c(-c4cc(Br)c(OCC(=O)O)c(Br)c4)nocc2-3)cc1

>  <inhibition>
101%

$$$$
>  <Compound Structure>
O=C(O)COc1ccc(-c2noc(-c3ccccc3)c3cccc2-3)cc1

>  <inhibition>
1.1%

$$$$
>  <Compound Structure>
COc1ccc(C(=O)c2ccc3c(-c4ccc(OC)cc4)nocc2-3)cc1

>  <inhibition>
32%

$$$$

Task: // inhibition lookup, key: CCCCCCCCCCCCCCC(=O)c1ccc2c(-c3ccc(OCC(=O)O)cc3)nocc1-2
Output: 101%

Task: // inhibition lookup, key: CCOC(=O)COc1ccc(-c2nocc3cccc2-3)cc1
Output: 2.1%

====

# Measurement Target: Tyrosine-protein phosphatase non-receptor type 1 (Homo sapiens)
# Procedure Details: Inhibitory activity against recombinant human PTP1B
Measured Metric: IC50 (µM)
State the answer as a number, implicitly in µM.

Sample answers from the record:
>  <Compound Structure>
COc1ccc(C(=O)c2ccc3c(-c4ccc(OCC(=O)O)cc4)nocc2-3)cc1

>  <Unit Tag>
µM

>  <IC50>
0.8

$$$$
>  <Compound Structure>
O=C(c1ccc2c(-c3ccc(OC(C(=O)O)C(=O)O)cc3)nocc1-2)C1CCCC1

>  <Unit Tag>
µM

>  <IC50>
8.19

$$$$
>  <Compound Structure>
COc1ccc(-c2nocc3c(C(=O)c4ccc(Cl)cc4Cl)ccc2-3)cc1

>  <Unit Tag>
µM

>  <IC50>
3.4

$$$$

Next:
Task: // IC50 lookup, key: COc1ccc(CC(=O)c2ccc3c(-c4ccc(OCC(=O)O)cc4)nocc2-3)cc1
Output: 5.63

====

# Measurement Target: Tyrosine-protein phosphatase non-receptor type 1 (Homo sapiens)
# Procedure Details: Inhibitory activity against recombinant human PTP1B at 10 uM
The source made the active and inactive calls. The calls are words filed in the database; no cut-off is given here.
Measured Metric: inhibition

Sample answers from the record:
>  <Compound Structure>
COc1ccc(C(=O)c2ccc3c(-c4ccc(OCC(=O)NCN5CCOCC5)cc4)nocc2-3)cc1

>  <Measurement Target>
Tyrosine-protein phosphatase non-receptor type 1 (Homo sapiens)

>  <Reported Value>
inactive

$$$$
>  <Compound Structure>
COc1cccc(C(=O)c2ccc3c(-c4ccc(OCC(=O)O)cc4)nocc2-3)c1

>  <Measurement Target>
Tyrosine-protein phosphatase non-receptor type 1 (Homo sapiens)

>  <Reported Value>
87.4%

$$$$
>  <Compound Structure>
O=C(c1ccc2c(-c3ccc(OC(C(=O)O)C(=O)O)cc3)nocc1-2)C1CCCC1

>  <Measurement Target>
Tyrosine-protein phosphatase non-receptor type 1 (Homo sapiens)

>  <Reported Value>
76.7%

$$$$
>  <Compound Structure>
NCc1ccc(C(=O)c2ccc3c(-c4ccc(OCC(=O)O)cc4)nocc2-3)cc1

>  <Measurement Target>
Tyrosine-protein phosphatase non-receptor type 1 (Homo sapiens)

>  <Reported Value>
97.2%

$$$$

Task: // inhibition lookup, key: CC(=O)c1ccc2c(-c3ccc(OCC(=O)O)cc3)nocc1-2
Output: inactive

Task: // inhibition lookup, key: Cc1onc(-c2ccc(OCC(=O)O)cc2)c2cccc1-2
Output: inactive

Task: // inhibition lookup, key: COc1ccc(-c2nocc3c(C(=O)c4ccc(Cl)cc4Cl)ccc2-3)cc1
Output: 101%

Task: // inhibition lookup, key: CCOC(=O)/C=C/c1ccc2c(-c3ccc(OCC(=O)O)cc3)nocc1-2
Output: inactive
